Recorded relative viability for the following compounds
# System: SW982
# test_summary: relative viability vs DMSO control (72 h) (fraction); higher = more viable cells
# experimental_setup: 0.00457 µM

The following compounds have reported results that may help.
COC(=O)c1ccc2c(c1)NC(=O)/C2=C(\Nc1ccc(N(C)C(=O)CN2CCN(C)CC2)cc1)c1ccccc1 : 0.994
COc1cc2ncnc(Nc3ccc(F)c(Cl)c3)c2cc1OCCCN1CCOCC1 : 1

(Q) GET /values?readout=relative viability&item= COc1cc(N2CCC(N3CCN(C)CC3)CC2)ccc1Nc1ncc(Cl)c(Nc2ccccc2P(C)(C)=O)n1
(A) 1.01

###

Recorded relative viability for the following compounds
# Test system: HS729
# test_summary: relative viability vs DMSO control (72 h) (fraction); higher = more viable cells
# experimental_setup: 0.00457 µM
Lab note: record just the number, no unit beside it.

CN(C)C(=O)c1cc2cnc(Nc3ccc(N4CCNCC4)cn3)nc2n1C1CCCC1 [Ribociclib] : 0.893

(Q) GET /values?readout=relative viability&item= CNC(=O)c1cccc2cc(Oc3ccnc4cc(OCC5(N)CC5)c(OC)cc34)ccc12 [Lucitanib]
(A) 1.04

(Q) GET /values?readout=relative viability&item= CN(C)CCCOc1ccc(-c2ccc3ncc4c(c3c2)n(C2CCOCC2)c(=O)n4C)cn1 [AZD-0156]
(A) 0.968

(Q) GET /values?readout=relative viability&item= O=S(=O)(c1cccc2c(O)nccc12)N1CCCNCC1 [Hydroxyfasudil]
(A) 1

(Q) GET /values?readout=relative viability&item= COc1cc(Nc2ncc3c(n2)-c2ccc(Cl)cc2C(c2c(F)cccc2OC)=NC3)ccc1C(=O)O [Alisertib]
(A) 0.888

(Q) GET /values?readout=relative viability&item= CCOc1cc2ncc(C#N)c(Nc3ccc(OCc4ccccn4)c(Cl)c3)c2cc1NC(=O)/C=C/CN(C)C [Neratinib]
(A) 0.905

(Q) GET /values?readout=relative viability&item= Cc1c2oc3c(C)ccc(C(=O)N[C@@H]4C(=O)N[C@H](C(C)C)C(=O)N5CCC[C@H]5C(=O)N(C)CC(=O)N(C)[C@@H](C(C)C)C(=O)O[C@@H]4C)c3nc-2c(C(=O)N[C@@H]2C(=O)N[C@H](C(C)C)C(=O)N3CCC[C@H]3C(=O)N(C)CC(=O)N(C)[C@@H](C(C)C)C(=O)O[C@@H]2C)c(N)c1=O [Dactinomycin]
(A) 0.896

###

# Test system: SK-ES-1
# test_summary: relative viability vs DMSO control (72 h) (fraction); higher = more viable cells
# experimental_setup: 0.00017 µM
Recorded relative viability for the following compounds
Lab note: record just the number, no unit beside it.

CCOc1cc2ncc(C#N)c(Nc3ccc(OCc4ccccn4)c(Cl)c3)c2cc1NC(=O)/C=C/CN(C)C [Neratinib] : 1.05
Cc1[nH]c(/C=C2\C(=O)Nc3ccccc32)c(C)c1CCC(=O)O [Orantinib] : 1.05
O=C(/C=C\n1cnc(-c2cc(C(F)(F)F)cc(C(F)(F)F)c2)n1)NNc1cnccn1 [Selinexor] : 1.05
COc1cc(Nc2ncc3c(n2)-c2ccc(Cl)cc2C(c2c(F)cccc2OC)=NC3)ccc1C(=O)O [Alisertib] : 1.01
CN(C)CCCOc1ccc(-c2ccc3ncc4c(c3c2)n(C2CCOCC2)c(=O)n4C)cn1 [AZD-0156] : 1.07
CNC(=O)c1c(C)oc2cc(Oc3ncnc4cc(OC)c(OC)cc34)ccc12 [Fruquintinib] : 1.01

(Q) GET /values?readout=relative viability&item= CNC(=O)c1cccc2cc(Oc3ccnc4cc(OCC5(N)CC5)c(OC)cc34)ccc12 [Lucitanib]
(A) 1.07

(Q) GET /values?readout=relative viability&item= Cc1cc(F)c(C(=O)Nc2cccc(-c3nncn3C(C)C)n2)cc1-n1cnc(C2CC2)c1 [Selonsertib]
(A) 1.01

(Q) GET /values?readout=relative viability&item= O=C(c1ccc(F)c(F)c1Nc1ccc(I)cc1F)N1CC(O)([C@@H]2CCCCN2)C1 [Cobimetinib]
(A) 1.04

(Q) GET /values?readout=relative viability&item= CC(=O)c1c(C)c2cnc(Nc3ccc(N4CCNCC4)cn3)nc2n(C2CCCC2)c1=O [Palbociclib]
(A) 1

###

# System: SW872
# test_summary: standardised AUC of viability dose-response curve (72 h) (fraction (0-1)); higher = less growth inhibition (more resistant)
metric: standardised AUC
Lab note: record just the number, no unit beside it.

The following compounds have reported results that may help.
CN(C)CCCOc1ccc(-c2ccc3ncc4c(c3c2)n(C2CCOCC2)c(=O)n4C)cn1 [AZD-0156] : 0.749
CNC(=O)c1c(C)oc2cc(Oc3ncnc4cc(OC)c(OC)cc34)ccc12 [FRUQUINTINIB] : 0.925
CCOc1cc2ncc(C#N)c(Nc3ccc(OCc4ccccn4)c(Cl)c3)c2cc1NC(=O)/C=C/CN(C)C [NERATINIB] : 0.817
O=C1CCc2c(Oc3ccc4c(c3)[C@@H]3[C@H](O4)[C@H]3c3nc4cc(C(F)(F)F)ccc4[nH]3)ccnc2N1 [LIFIRAFENIB] : 0.87
C#Cc1cccc(Nc2ncnc3cc4c(cc23)OCCOCCOCCO4)c1 [ICOTINIB] : 0.958

(Q) GET /values?readout=standardised AUC&item= Cc1[nH]c(/C=C2\C(=O)Nc3ccccc32)c(C)c1CCC(=O)O [ORANTINIB]
(A) 0.975

(Q) GET /values?readout=standardised AUC&item= O=C(c1ccc(F)c(F)c1Nc1ccc(I)cc1F)N1CC(O)([C@@H]2CCCCN2)C1 [COBIMETINIB]
(A) 0.633

(Q) GET /values?readout=standardised AUC&item= COc1cc2ncnc(Nc3ccc(F)c(Cl)c3)c2cc1OCCCN1CCOCC1 [GEFITINIB]
(A) 0.959

(Q) GET /values?readout=standardised AUC&item= C[C@@H]1CN(C(=O)c2ccc(NC(=O)c3cc(O[C@H](C)c4c(Cl)ccc(F)c4Cl)c(N)nn3)cc2)C[C@H](C)N1 [ENSARTINIB]
(A) 0.891

###

# Test system: A204
# test_summary: relative viability vs DMSO control (72 h) (fraction); higher = more viable cells
# experimental_setup: 0.00152 µM
Recorded relative viability for the following compounds
Lab note: record just the number, no unit beside it.

The following compounds have reported results that may help.
CN(C)C/C=C/C(=O)Nc1cc2c(Nc3ccc(F)c(Cl)c3)ncnc2cc1O[C@H]1CCOC1 [Afatinib] : 1.03
CCS(=O)(=O)N1CC(CC#N)(n2cc(-c3ncnc4[nH]ccc34)cn2)C1 [Baricitinib] : 1.05
CN(C)CCCOc1ccc(-c2ccc3ncc4c(c3c2)n(C2CCOCC2)c(=O)n4C)cn1 [AZD-0156] : 1.07
COc1cc(N2CCC(N3CCN(C)CC3)CC2)ccc1Nc1ncc(Cl)c(Nc2ccccc2P(C)(C)=O)n1 [Brigatinib] : 1.03
CCOc1cc2ncc(C#N)c(Nc3ccc(OCc4ccccn4)c(Cl)c3)c2cc1NC(=O)/C=C/CN(C)C [Neratinib] : 1.08

(Q) GET /values?readout=relative viability&item= O=S(=O)(c1cccc2c(O)nccc12)N1CCCNCC1 [Hydroxyfasudil]
(A) 1.12

(Q) GET /values?readout=relative viability&item= Cc1[nH]c(/C=C2\C(=O)Nc3ccccc32)c(C)c1CCC(=O)O [Orantinib]
(A) 1.12

(Q) GET /values?readout=relative viability&item= C=CC(=O)N1CCC(CNc2ncnc(N)c2-c2ccc(Oc3ccccc3)cc2)CC1 [Evobrutinib]
(A) 1.16

###

# Tested on: SYO-1
# test_summary: standardised AUC of viability dose-response curve (72 h) (fraction (0-1)); higher = less growth inhibition (more resistant)
Recorded standardised AUC for the following molecules

The following molecules have reported results that may help.
CCc1nc(C(N)=O)c(Nc2ccc(N3CCC(N4CCN(C)CC4)CC3)c(OC)c2)nc1NC1CCOCC1 : 0.665
O=C1CCc2c(Oc3ccc4c(c3)[C@@H]3[C@H](O4)[C@H]3c3nc4cc(C(F)(F)F)ccc4[nH]3)ccnc2N1 : 0.88

Turning to the following molecule.
(Q) GET /values?readout=standardised AUC&item= O=C(c1ccc(F)c(F)c1Nc1ccc(I)cc1F)N1CC(O)([C@@H]2CCCCN2)C1
(A) 0.878

###

# System: SYO-1
# test_summary: relative viability vs DMSO control (72 h) (fraction); higher = more viable cells
# experimental_setup: 3.333 µM
metric: relative viability
Lab note: record just the number, no unit beside it.

O=C1CCc2c(Oc3ccc4c(c3)[C@@H]3[C@H](O4)[C@H]3c3nc4cc(C(F)(F)F)ccc4[nH]3)ccnc2N1 [Lifirafenib] : 0.555
CNC(=O)c1c(C)oc2cc(Oc3ncnc4cc(OC)c(OC)cc34)ccc12 [Fruquintinib] : 0.417
O=C(c1ccc(F)c(F)c1Nc1ccc(I)cc1F)N1CC(O)([C@@H]2CCCCN2)C1 [Cobimetinib] : 0.566
C[C@@H]1CN(C(=O)c2ccc(NC(=O)c3cc(O[C@H](C)c4c(Cl)ccc(F)c4Cl)c(N)nn3)cc2)C[C@H](C)N1 [Ensartinib] : 0.175
C#Cc1cccc(Nc2ncnc3cc4c(cc23)OCCOCCOCCO4)c1 [Icotinib] : 0.892

(Q) API: value(readout= relative viability, system= SYO-1, query= CC(=O)c1c(C)c2cnc(Nc3ccc(N4CCNCC4)cn3)nc2n(C2CCCC2)c1=O [Palbociclib] )
(A) 0.523

(Q) API: value(readout= relative viability, system= SYO-1, query= Cc1cc(F)c(C(=O)Nc2cccc(-c3nncn3C(C)C)n2)cc1-n1cnc(C2CC2)c1 [Selonsertib] )
(A) 0.828
